- System: T. cruzi intracellular amastigotes in H9c2 cells
- procedure details: Rate-of-Kill (RoK) high-content imaging assay, amastigotes per cell (AM/CELL) and curve descriptors
- Assay type: cell-based, Trypanosoma cruzi
- test parameters: Time 4; sheet figure 4 A
Listing: AM/CELL NORM of selected molecules

| molecule | AM/CELL NORM |
| --- | --- |
| COc1ccc2ncc(=O)n(CCN3CCOC(CNCc4ccc(C(F)(F)F)cc4F)C3)c2n1 (stereo not shown) | -15.3138 |
| FC(F)(F)c1cc(C2CCCN(Cc3c[nH]c4ccccc34)C2)nc2ncnn12.O=C(O)C(O)C(O)C(=O)O (stereo not shown) | -4.224 |
| Cn1cc(CN2CCN(c3ccc4c(c3)CCN(C(=O)[C@H]3C[C@@H]3c3ccccc3)CC4)CC2)cn1 | 1.751 |
| CC(=O)Nc1nc(-c2cc(C)ccc2C)c(C)s1 | -2.089 |
| O=C(c1cccc(Cl)c1Cl)N1CCn2c1nc(-c1ccncc1)cc2=O | 24.5196 |
| Cc1cc(N(C)C)nc(Nc2ccccc2C)n1 | 2.321 |
| O=C(NCCc1cccnc1)c1ccc(-c2ccccc2F)o1 | 10.7478 |
| COc1cccc(C(=O)[C@H]2C[C@@H]2CN(Cc2cccnc2)Cc2cccnc2)c1 | -1.514 |
| CCN(CC)S(=O)(=O)c1ccc(C(=O)Nc2cc(C)nn2-c2nc(C)c(C)c(=O)[nH]2)cc1 | -1.286 |
| Cc1cc2cncn2c(C2CCCCN2C(=O)c2cccs2)n1 (stereo not shown) | 8.792 |
| Cc1nnnn1-c1cccc(C(=O)N2CCC[C@@]3(C)c4ncncc4CCC23)c1 (stereo partly shown) | 4.786 |
| CN(C(=O)Nc1ccc2c(c1)CCN(C1CCC1)CC2)c1ccc(C#N)cc1.Cl | 4.08 |
| CCCCn1nnnc1CSc1nc(C)cc(C)c1C#N | 13.5421 |
| CC1CN(S(=O)(=O)c2ccc(NC(=O)c3cc(C4CC4)nc4c3cnn4C(C)C)cc2)CC(C)O1 (stereo not shown) | -14.9286 |
| O=c1[nH]ccc2ccc(-c3ccncc3)cc12 | -16.1027 |
| O=C(C1CCCCC1)N1CCN(c2nnc(-c3ccccc3)c3ccccc23)CC1 | -0.05415 |
| Cc1[nH]c2ccccc2c(=O)c1Cc1c(C)[nH]c2ccccc2c1=O | 13.7757 |
| CCOc1cnn(C)c(=O)c1Nc1ccc(C(=O)NCc2ccc(F)cc2)cc1 | -4.52 |
| O=C(NCCc1ccccc1Cl)c1cccn1-c1cccnc1 | -14.0913 |
| CCC(=O)Nc1ccc(-c2nc3ccc(Cl)cc3[nH]2)cc1 | -141.214 |
| Cc1[nH]nc2c1C(c1ccc(OCc3ccccc3F)cc1)SCC(=O)N2 (stereo not shown) | 25.0577 |
| CCCN(Cc1ccc(OC)c(OC)c1)Cc1cc(=O)c2c(C)cc(C)cc2[nH]1 | 14.9494 |
| O=C(NC1C(=O)N(c2ccccc2)C1c1cccnc1)c1ccc(Cl)s1 (stereo not shown) | -16.6269 |
| CNc1cc(C)nc(C2CN(C(=O)c3n[nH]c4ccccc34)CCO2)c1 (stereo not shown) | 7.648 |
| COc1cc(C(C)C)c(S(C)(=O)=O)cc1C(=O)N1CCN(c2ccccc2Cl)CC1 | -12.0353 |
| COc1ccc(C(C)(C)C)cc1S(=O)(=O)n1ccnc1 | 7.308 |
| COc1ccc(CN(C)Cc2ccncc2)cc1-c1ccc(S(=O)(=O)NC2CCC2)s1.O=C(O)C(F)(F)F.O=C(O)C(F)(F)F | -8.521 |
| CCCc1nc2nc(N)nc(N)c2cc1CC | 30.5298 |
| CS(=O)(=O)c1cccc(CNC(=O)c2cncc(N3CCN(c4ccc(F)cc4)CC3)c2)c1.O=C(O)C(F)(F)F.O=C(O)C(F)(F)F.O=C(O)C(F)(F)F | -2.309 |
| Cc1c(C#N)c([N+](=O)[O-])nn1Cc1cccc(Cl)c1Cl | 5.197 |
| O=C(NCCc1ccccn1)C(c1cn[nH]c1)N1CCN(c2ccc(Cl)c(Cl)c2)CC1 (stereo not shown) | 6.745 |
| O=C(CSc1ccc(-c2ccccn2)nn1)Nc1ccc(Cl)cc1 | 7.37 |
| CC(C)c1cc(C(=O)N2CCCC(c3cc4ncccc4[nH]3)C2)on1 (stereo not shown) | 3.622 |
| c1ccc(CCNCc2cncc3nc(-c4cnccn4)n(C4CCCCC4)c23)cc1 | -7.276 |
